Molecular target: FPR2 (Homo sapiens (Human), UniProt P25090)
Sequence (P25090 whole entry): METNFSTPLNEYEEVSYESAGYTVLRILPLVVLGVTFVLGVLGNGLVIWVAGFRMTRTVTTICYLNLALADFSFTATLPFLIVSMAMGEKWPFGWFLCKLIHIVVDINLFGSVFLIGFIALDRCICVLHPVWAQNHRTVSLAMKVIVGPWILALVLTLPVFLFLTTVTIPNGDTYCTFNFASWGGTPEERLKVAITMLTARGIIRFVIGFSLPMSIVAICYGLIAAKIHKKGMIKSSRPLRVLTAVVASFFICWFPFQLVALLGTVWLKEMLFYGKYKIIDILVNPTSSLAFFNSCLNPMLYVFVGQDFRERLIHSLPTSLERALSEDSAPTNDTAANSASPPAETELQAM
Experiment: Agonistic activity (calcium FLIPR) in hFPR2-Aq-CHO cells
Settings: FLIPR Calcium 5 dye fluorescence, agonistic response
property-name: EC50

Completed entries (count: 8):
O=C(Nc1ccc(Cl)cc1)NC1CN(C(=O)C2CC2)CCC1c1ccccc1 (single isomer, unassigned; ent1) [Example 83] | 1 to 1000 nM
COc1ccc([C@@H]2CC(=O)N(C)C[C@H]2NC(=O)Nc2ccc(Cl)cc2)cc1 (stereo in doubt) [Example 7] | < 1 nM
COc1ccc(C2CC(=O)NCC2NC(=O)Nc2ccc(Cl)cc2)cc1 (single isomer, unassigned; ent1) [Example 76] | < 1 nM
COc1ccc([C@@H]2CCNC[C@H]2NC(=O)Nc2ccc(Br)cc2)cc1 (racemic) [Example 6] | < 1 nM
O=C(Nc1ccc(Cl)cc1)NC1CN(CC(F)F)C(=O)CC1c1ccc(F)cc1F (single isomer, unassigned; ent1) [Example 65] | 1 to 1000 nM
COc1ccc([C@@H]2CCN(C(=O)C3CCOCC3)C[C@H]2NC(=O)Nc2ccc(Cl)cc2)cc1 (racemic) [Example 16] | < 1 nM
COCCN1CC(NC(=O)Nc2ccc(Cl)cc2)C(c2ccc(F)cc2F)CC1=O (single isomer, unassigned; ent1) [Example 63] | 1 to 1000 nM
COc1cc(F)c(C2C(NC(=O)Nc3ccc(Cl)cc3)CCCN2C)c(F)c1 (single isomer, unassigned; dia2) [Example 88] | 1 to 1000 nM

# evaluate next
I'm curious: which EC50 was measured for O=C(Nc1ccc(Cl)cc1)NC1CNCCC1c1ccccc1 (single isomer, unassigned; ent2) [Example 81] tested on FPR2 (Homo sapiens (Human), UniProt P25090)?
1 to 1000 nM

###

Target: FPR2 (Homo sapiens (Human))
Experiment: Agonistic activity (calcium FLIPR) in hFPR2-Aq-CHO cells
Conditions: FLIPR Calcium 5 dye fluorescence, agonistic response
pEC50: −log10 of the molar value.
property-name: pEC50

COc1ccc(C2CC(=O)NCC2NC(=O)Nc2ccc(Cl)cc2)cc1 (single isomer, unassigned; ent2) [Example 77] | 6.00 to 9.00
O=C1C[C@@H](c2ccc(OC(F)F)cc2)[C@H](NC(=O)Nc2ccc(Cl)cc2)CN1 (racemic) [Example 74] | 6.00 to 9.00

# next molecule below
Bench note: what pEC50 did COc1cc(F)c([C@@H]2CC(=O)NC[C@H]2NC(=O)Nc2cc3ccccc3s2)c(F)c1 (racemic) [Example 53] show?
6.00 to 9.00

###

Target: FPR2 (Homo sapiens (Human), UniProt P25090)
Assay: Agonistic activity (calcium FLIPR) in hFPR2-Aq-CHO cells
Conditions: FLIPR Calcium 5 dye fluorescence, agonistic response
property-name: EC50

COc1cc(F)c([C@@H]2CC(=O)NC[C@H]2NC(=O)Nc2ncc(Cl)s2)c(F)c1 (racemic) [Example 56] | 1 to 1000 nM
COCCC(=O)N1CC[C@@H](c2ccc(OC)cc2)[C@H](NC(=O)Nc2ccc(Cl)cc2)C1 (racemic) [Example 15] | < 1 nM
COc1cc(F)c([C@@H]2CC(=O)NC[C@H]2NC(=O)Nc2cc(C)ns2)c(F)c1 (racemic) [Example 55] | 1 to 1000 nM

We now examine a further compound.
Name the reported EC50 value associated with the compound COc1ccc(C2CC(=O)NCC2NC(=O)Nc2ccc(Cl)cc2)c(F)c1 (single isomer, unassigned; ent2) [Example 43]
1 to 1000 nM

###

Molecular target: FPR1 (Homo sapiens (Human), UniProt P21462)
Sequence (P21462 whole entry): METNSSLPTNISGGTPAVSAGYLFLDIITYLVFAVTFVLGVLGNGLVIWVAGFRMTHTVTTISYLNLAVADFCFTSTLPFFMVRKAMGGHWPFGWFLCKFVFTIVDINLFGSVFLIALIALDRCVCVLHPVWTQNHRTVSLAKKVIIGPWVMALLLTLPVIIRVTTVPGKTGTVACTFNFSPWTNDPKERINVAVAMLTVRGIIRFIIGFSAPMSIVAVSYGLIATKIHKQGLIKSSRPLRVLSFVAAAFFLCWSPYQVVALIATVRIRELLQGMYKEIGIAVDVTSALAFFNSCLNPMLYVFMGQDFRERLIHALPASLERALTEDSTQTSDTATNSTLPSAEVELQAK
Test: Agonistic activity (calcium FLIPR) in hFPR1-Gα15-CHO cells
Assay type: cell-based
Conditions: FLIPR Calcium 5 dye fluorescence, agonistic response
pEC50: −log10 of the molar value.
property-name: pEC50

These solved cases illustrate the format of a correct answer.
COc1cc(F)c([C@@H]2CC(=O)NC[C@H]2NC(=O)Nc2ccc(Cl)cc2)c(F)c1 (racemic) [Example 23] | 6.00 to 9.00
COc1ccc([C@@H]2CCN(C(=O)C(C)C)C[C@H]2NC(=O)Nc2ccc(Cl)cc2)cc1 (racemic) [Example 17] | > 9.00
COc1cc(F)c([C@@H]2CC(=O)NC[C@H]2NC(=O)Nc2ncc(Cl)s2)c(F)c1 (racemic) [Example 56] | 6.00 to 9.00
COc1ccc(C2CC(=O)NCC2NC(=O)Nc2ccc(Cl)cc2)c(F)c1 (single isomer, unassigned; ent2) [Example 43] | 6.00 to 9.00
O=C1C[C@@H](c2c(F)cc(OC(F)F)cc2F)[C@H](NC(=O)Nc2ccc(Cl)cc2)CN1 (racemic) [Example 70] | 6.00 to 9.00
CS(=O)(=O)c1ccc([C@@H]2CC(=O)NC[C@H]2NC(=O)Nc2ccc(Cl)cc2)cc1 (racemic) [Example 75] | 6.00 to 9.00

Now for a further compound.
What pEC50 value was documented for this compound, COc1ccc(C2CCN(C(=O)C3CC3)CC2NC(=O)Nc2ccc(Cl)cc2)c(F)c1 (single isomer, unassigned; ent1) [Example 86] ?
> 9.00

###

Biological target: FPR2 (Homo sapiens (Human), UniProt P25090)
Test: Agonistic activity (calcium FLIPR) in hFPR2-Aq-CHO cells
Conditions: FLIPR Calcium 5 dye fluorescence, agonistic response
property-name: EC50

COc1ccc([C@@H]2CCN(C(=O)C(C)C)C[C@H]2NC(=O)Nc2ccc(Cl)cc2)cc1 (racemic) | < 1 nM
COc1cc(F)c([C@@H]2CC(=O)NC[C@H]2NC(=O)Nc2ccc(Oc3ccccc3)cc2)c(F)c1 (racemic) | < 1 nM
COc1ccc(C2C(NC(=O)Nc3ccc(Cl)cc3)CCCN2C)cc1 (single isomer, unassigned; dia2) [Example 90] | 1 to 1000 nM

Here is the next item to consider.
// fetch FPR2 (Homo sapiens (Human), UniProt P25090) EC50 for COc1ccc([C@@H]2CCN(C(C)=O)C[C@H]2NC(=O)Nc2cncnc2)cc1 (racemic)
1 to 1000 nM

###

Molecular target: FPR1 (Homo sapiens (Human))
Assay: Agonistic activity (calcium FLIPR) in hFPR1-Gα15-CHO cells
Settings: FLIPR Calcium 5 dye fluorescence, agonistic response
property-name: EC50

The examples below pair each entry with its known result.
COC(=O)CN1C[C@@H](NC(=O)Nc2ccc(Cl)cc2)[C@H](c2ccc(OC)cc2)CC1=O (racemic) | < 1 nM
COc1ccc([C@@H]2CCN(C(C)=O)C[C@H]2NC(=O)Nc2ccc(C)nc2)cc1 (racemic) | 1 to 1000 nM

# context switch: different compound, same EC50
Any idea what EC50 came out for O=C1CC(c2ccc(F)cc2F)C(NC(=O)Nc2ccc(Cl)cc2)CN1 (single isomer, unassigned; ent2) [Example 68] on FPR1 (Homo sapiens (Human))?
1 to 1000 nM

###

Items are presented alongside their recorded EC50.
Molecular target: FPR2 (Homo sapiens (Human))
Assay: Agonistic activity (calcium FLIPR) in hFPR2-Aq-CHO cells
Conditions: FLIPR Calcium 5 dye fluorescence, agonistic response

Field: example entries. Status: answers known.
COc1ccc([C@@H]2CCN(C(=O)C(C)(F)F)C[C@H]2NC(=O)Nc2ccc(Cl)cc2)cc1 (racemic) [Example 14] | < 1 nM
O=C(Nc1ccc(Cl)cc1)NC1CNCCC1c1ccccc1 (single isomer, unassigned; ent1) [Example 80] | 1 to 1000 nM
O=C(Nc1ccc(Cl)cc1)NC1CN(C(=O)C2CC2)CCC1c1ccccc1 (single isomer, unassigned; ent2) [Example 84] | 1 to 1000 nM
COCCN1CC(NC(=O)Nc2ccc(Cl)cc2)C(c2ccc(F)cc2F)CC1=O (single isomer, unassigned; ent2) [Example 64] | 1 to 1000 nM
O=C1C[C@@H](c2c(F)cc(OC(F)F)cc2F)[C@H](NC(=O)Nc2ccc(Cl)cc2)CN1 (racemic) [Example 70] | 1 to 1000 nM

Next, consider the following molecule.
Find the recorded EC50 belonging to COCCN1CC(NC(=O)Nc2ccc(Cl)cc2)C(c2ccc(OC)cc2F)CC1=O (single isomer, unassigned; ent1) [Example 59] and report it.
< 1 nM

###

Documented pEC50 across a set of compounds
Target: FPR2 (Homo sapiens (Human), UniProt P25090)
Assay: Agonistic activity (calcium FLIPR) in hFPR2-Aq-CHO cells
Conditions: FLIPR Calcium 5 dye fluorescence, agonistic response
pEC50: −log10 of the molar value.

Study these solved cases before continuing.
COc1cc(F)c([C@@H]2CCNC[C@H]2NC(=O)Nc2ccc(Br)cc2)c(F)c1 (racemic) | > 9.00
COc1cc(F)c(C2CCN(C(=O)C3CC3)CC2NC(=O)Nc2ccc(Cl)cc2)c(F)c1 (single isomer, unassigned; ent2) [Example 40] | 6.00 to 9.00
COc1ccc([C@H]2CC(=O)N(C)C[C@@H]2NC(=O)Nc2ccc(Cl)cc2)cc1 (stereo in doubt) | > 9.00

Kindly consider the entry below.
Return reported pEC50; argument: COc1cc(F)c(C2CC(=O)NCC2NC(=O)Nc2ccncc2)c(F)c1 (single isomer, unassigned; ent1) [Example 47]
6.00 to 9.00
